- System: SF-268 CNS
- EXPERIMENTAL DETAILS: NCI-60 one-dose screen, 48 h (100 = growth as untreated, 0 = no growth, -100 = all killed)
- CONDITION SET: 10 µM unless noted
The panel holds about 83,000 compounds, 20% with a hit somewhere; the sample as a whole holds those more often.
Exam item: assign True to entries whose growth is below 60% and False to entries at or above 60%. Note that a value of exactly 60% receives False.

Query: # strict comparison: is reported growth < 60%? input = CCCCCCCCNc1ncnc2c1ncn2Cc1nnc2c3ccccc3c(Cl)nn12
Response: True

Query: # strict comparison: is reported growth < 60%? input = CN1CCN(Cc2ccc(NC(=O)c3cncc(C#Cc4c(N)ncc5ccccc45)c3)cc2C(F)(F)F)CC1
Response: True

Query: # strict comparison: is reported growth < 60%? input = Cc1oc2ccc(O)c(CN3CCCCCC3)c2c1C(=O)Nc1ccc(C(F)(F)F)cc1
Response: False

Query: # strict comparison: is reported growth < 60%? input = COc1ccc(/C=N\NC(=O)c2ccc3nc(-c4ccc(Cl)cc4)[nH]c3c2)cc1
Response: True

Query: # strict comparison: is reported growth < 60%? input = CC(C)CCc1nc2ccc(NCc3ccc(OCCN4CCC(C)CC4)cc3)cc2[nH]1
Response: False

---
Query: # strict comparison: is reported growth < 60%? input = C=CCn1c(SCC(=O)Nc2ccc(C(=O)/C=C/c3ccc(Cl)cc3)cc2)nnc1-c1ccc(Cl)c(Cl)c1
Response: False

----------
- Tested on: UO-31 renal
- EXPERIMENTAL DETAILS: NCI-60 one-dose screen, 48 h (100 = growth as untreated, 0 = no growth, -100 = all killed)
- CONDITION SET: 10 µM unless noted
This is part of a sample that, as a whole, favours compounds with a hit. Of some 83,000 tested, about 20% had one in any assay.
Exam item: assign 1.0 to entries whose growth is below 40% and 0.0 to entries at or above 40%. Note that a value of exactly 40% receives 0.0.

Query: # strict comparison: is reported growth < 40%? input = COc1ccc2c(c1)c(-c1nc(-c3cn(C)c4ccncc34)cs1)cn2C
Response: 0.0

Query: # strict comparison: is reported growth < 40%? input = O=C(/C=C/c1ccc(Cl)cc1)c1ccc(Nc2ccnc3cc(Cl)ccc23)cc1
Response: 0.0

Query: # strict comparison: is reported growth < 40%? input = COC(=O)[C@H](C)NC(=O)c1ccc(NC(=O)c2[nH]c(C)c(Cl)c2Cl)c(OCCN)c1
Response: 0.0

Query: # strict comparison: is reported growth < 40%? input = COc1cc(C2=Nc3c(N)nc(N)nc3NC(c3cccc(Nc4ccnc5cc(C(F)(F)F)ccc45)c3)C2)cc(OC)c1OC (centres undefined)
Response: 0.0

Query: # strict comparison: is reported growth < 40%? input = O=C1c2c(c3c4cccnc4[nH]c3c3ccc4ccccc4c23)C(=O)N1O
Response: 0.0

Query: # strict comparison: is reported growth < 40%? input = CCCCCN(CCCCC)CC(O)c1c(Cl)ccc2ccccc12 (centres undefined)
Response: 1.0

Query: # strict comparison: is reported growth < 40%? input = COc1ccc(S(=O)(=O)N(C)c2oc(-c3ccc(Cl)cc3)nc2C#N)cc1
Response: 0.0

Query: # strict comparison: is reported growth < 40%? input = Nc1ncc(-c2ccc3ncnc(N4CCc5cc(F)c(Cl)cc54)c3c2)cc1C=O
Response: 1.0

---
Query: # strict comparison: is reported growth < 40%? input = Cc1ccc(S(=O)(=O)N(CCC(=O)O)c2ccccc2)cc1
Response: 0.0

Query: # strict comparison: is reported growth < 40%? input = O=C(COc1ccc(/C=C2\Oc3ccccc3C2=O)cc1)Nc1nccs1
Response: 1.0

Query: # strict comparison: is reported growth < 40%? input = CC(C)n1nc(-c2ccc3oc(N)nc3c2)c2c(N)ncnc21
Response: 1.0

Query: # strict comparison: is reported growth < 40%? input = NCCCCCNc1noc(Cc2c[nH]c3cc(Br)ccc23)n1
Response: 0.0

Query: # strict comparison: is reported growth < 40%? input = Cn1nc(-c2ccc(Cl)cc2)nc2c(=O)n(C)c(=O)nc1-2
Response: 1.0

Query: # strict comparison: is reported growth < 40%? input = COc1ccc2c(O)cc3c(c2c1)[C@H](CCl)CN3C(=O)c1cc2cc(NC(=O)CCN3CCOCC3)ccc2[se]1
Response: 1.0
